molecular target: Xanthine dehydrogenase/oxidase (Homo sapiens, UniProt P47989)
Sequence (P47989 whole entry): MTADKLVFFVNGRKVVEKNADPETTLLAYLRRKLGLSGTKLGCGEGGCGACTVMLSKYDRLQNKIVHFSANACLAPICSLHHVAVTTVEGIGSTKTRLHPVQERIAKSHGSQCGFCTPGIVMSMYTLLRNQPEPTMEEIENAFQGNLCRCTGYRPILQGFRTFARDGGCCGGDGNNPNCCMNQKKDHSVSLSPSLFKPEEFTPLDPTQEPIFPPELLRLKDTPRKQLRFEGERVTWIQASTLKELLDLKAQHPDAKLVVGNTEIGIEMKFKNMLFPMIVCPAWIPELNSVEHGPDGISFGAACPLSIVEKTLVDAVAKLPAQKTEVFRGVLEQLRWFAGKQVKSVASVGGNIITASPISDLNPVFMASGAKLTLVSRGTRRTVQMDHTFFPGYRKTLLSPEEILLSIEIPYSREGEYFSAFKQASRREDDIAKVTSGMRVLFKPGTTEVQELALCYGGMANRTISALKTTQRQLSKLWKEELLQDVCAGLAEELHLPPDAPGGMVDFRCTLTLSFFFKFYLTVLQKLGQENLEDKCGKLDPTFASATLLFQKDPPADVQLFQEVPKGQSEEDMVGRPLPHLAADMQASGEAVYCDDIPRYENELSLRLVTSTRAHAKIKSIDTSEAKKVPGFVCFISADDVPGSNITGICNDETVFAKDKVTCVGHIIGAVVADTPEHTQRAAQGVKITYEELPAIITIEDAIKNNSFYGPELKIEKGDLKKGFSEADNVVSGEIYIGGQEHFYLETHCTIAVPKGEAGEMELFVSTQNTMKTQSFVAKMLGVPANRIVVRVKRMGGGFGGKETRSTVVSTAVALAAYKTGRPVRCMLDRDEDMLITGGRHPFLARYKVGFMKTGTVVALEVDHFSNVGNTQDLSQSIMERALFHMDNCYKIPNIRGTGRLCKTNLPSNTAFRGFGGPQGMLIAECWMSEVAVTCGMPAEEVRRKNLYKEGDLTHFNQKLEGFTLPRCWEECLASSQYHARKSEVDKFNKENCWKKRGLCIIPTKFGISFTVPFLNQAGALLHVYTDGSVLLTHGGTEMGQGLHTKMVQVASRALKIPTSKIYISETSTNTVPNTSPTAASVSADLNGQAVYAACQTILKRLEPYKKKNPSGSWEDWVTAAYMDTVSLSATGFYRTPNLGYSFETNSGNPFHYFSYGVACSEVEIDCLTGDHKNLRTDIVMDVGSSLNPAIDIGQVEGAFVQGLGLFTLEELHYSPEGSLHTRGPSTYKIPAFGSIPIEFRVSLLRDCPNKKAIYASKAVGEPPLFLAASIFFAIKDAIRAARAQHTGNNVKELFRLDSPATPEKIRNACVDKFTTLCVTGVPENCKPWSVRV
pIC50: −log10 of the molar value.
PARAMETER_MEASURED: pIC50

Name the reported pIC50 value associated with the compound O=C(O)CSc1nnc(Br)n1-c1ccc(C2CC2)c2ccccc12
< 3.52
